# targetOrSystem: EP4 (Homo sapiens, UniProt P35408)
# Construct: BT549 breast cancer cells, express high endogenous EP4 levels and very low EP2 levels
# Sequence (P35408 whole entry): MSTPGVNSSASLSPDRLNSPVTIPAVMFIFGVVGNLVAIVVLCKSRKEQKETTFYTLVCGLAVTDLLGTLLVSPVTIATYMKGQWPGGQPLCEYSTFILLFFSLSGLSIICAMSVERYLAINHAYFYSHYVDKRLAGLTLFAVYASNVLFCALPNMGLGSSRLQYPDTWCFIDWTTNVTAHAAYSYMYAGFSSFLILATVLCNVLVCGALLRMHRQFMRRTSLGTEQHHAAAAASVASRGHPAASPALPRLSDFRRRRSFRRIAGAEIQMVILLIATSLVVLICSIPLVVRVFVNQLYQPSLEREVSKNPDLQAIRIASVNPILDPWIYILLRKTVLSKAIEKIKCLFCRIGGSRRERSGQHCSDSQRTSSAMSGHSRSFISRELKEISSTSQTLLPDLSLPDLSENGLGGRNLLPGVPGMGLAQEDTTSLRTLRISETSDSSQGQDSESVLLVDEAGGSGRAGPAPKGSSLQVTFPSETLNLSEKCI
# method: hEP4 cAMP Assay (BT549 breast cancer cells, HTRF cAMP, PGE2 6 nM)
# details: antagonistic activity, PGE2 6 nM (EC80)
experimentalReadout: IC50 (nM)

CCOc1cc(-c2cc(NCCc3cccc4ccncc34)ncn2)sc1-c1noc(=O)[nH]1 :: 28
CCOc1nc(-c2cc(NCCc3c(OC)ccc4ccccc34)ncn2)sc1C(=O)O :: 44
CSc1cc(-c2cc(NCCc3ccc(Br)c4ccccc34)ncn2)ccc1C(=O)O :: 130
COc1ccc2c(c1CCNc1cc(-c3cc(C(F)(F)F)c(C(=O)O)s3)ncn1)CCCN2C :: 177
CCOc1cc(-c2cc(NCCc3c(C)ccc4c3cnn4C)ncn2)ccc1O :: 855

I. CCOc1cc(-c2cc(NCCc3c(C)ccc4ncccc34)ncn2)sc1C(=O)O
II. O=C(O)c1sc(-c2cc(NCCc3cccc4cccnc34)ncn2)cc1C(F)(F)F
input: Given I and given II , which shows the smaller recorded IC50? Lab note: record the label of whichever item you select.
output: I
(I: 100 nM, II: 960 nM)

Origin of measurements: patent US11446298B2
